- TARGET_OF_ASSAY: acyl-coenzyme A:cholesterol acyltransferase (ACAT)
- Format: biochemical, Mus musculus
RESULT_TYPE: pIC50
Please express pIC50 as -log10 of the molar concentration.

COMPOUND: CCCCCCCCCC[Si](C)(C)CCC(=O)NC(Cc1ccc(C)cc1)c1ccccc1 (centres unmarked)
pIC50: 6.40

Proceed to the following item.
May I ask what pIC50 has been recorded for Cc1ccc(Cn2nc(C(=O)N[C@@H]3C(C)(C)[C@@H]4CC[C@@]3(C)C4)cc2-c2ccc(Cl)c(C)c2)cc1 ?
5.44
